# merged literature set: pKi with Vasopressin V1a receptor (Homo sapiens, UniProt P37288)
When answering, recall that pKi equals minus log10 of the concentration in mol/L, and write that number alone.

For the compound O=C(Cn1cc(C(=O)N2CCC3(CC2)OC(=O)c2cc(Br)ccc23)c2ccc(Cl)cc21)c1cccc(F)c1 , the measured pKi on Vasopressin V1a receptor (Homo sapiens, UniProt P37288) was 8.36

For the compound COCc1nnc(N2Cc3ccccc3C2)n1-c1ccc(Cl)cc1 , the measured pKi on Vasopressin V1a receptor (Homo sapiens, UniProt P37288) was 8.01

For the compound CCOCc1nnc(N2CCC(Oc3ncccn3)CC2)n1-c1ccc(Cl)cc1 , the measured pKi on Vasopressin V1a receptor (Homo sapiens, UniProt P37288) was 9.02

For the compound N#CCc1cc(Cl)cc2cc(C(=O)N3CCC4(CC3)OCc3ccccc34)[nH]c12 , the measured pKi on Vasopressin V1a receptor (Homo sapiens, UniProt P37288) was 8.68

For the compound CN(C)CCNC(=O)c1[nH]c2cc(Cl)ccc2c1C(=O)N1CCC2(CC1)OC(=O)c1cc(F)ccc12 , the measured pKi on Vasopressin V1a receptor (Homo sapiens, UniProt P37288) was 7.40

For the compound Cc1c(C(=O)N2CCC3(CC2)OCc2ccccc23)c2ccccc2n1Cc1ccccc1OC(F)(F)F , the measured pKi on Vasopressin V1a receptor (Homo sapiens, UniProt P37288) was 8.59

For the compound O=C(c1cn(C(=O)c2cccc(F)c2F)c2cc(Cl)ccc12)N1CCC2(CC1)OCc1ccccc12 , the measured pKi on Vasopressin V1a receptor (Homo sapiens, UniProt P37288) was 8.24

For the compound N#CCn1cc(C(=O)N2CCC(n3c(=O)[nH]c4ccccc43)CC2)c2ccc(Cl)cc21 , the measured pKi on Vasopressin V1a receptor (Homo sapiens, UniProt P37288) was 8.22

For the compound O=C(c1cn(Cc2cc(F)cc(F)c2)c2cc(Cl)ccc12)N1CCC2(CC1)OCc1ccccc12 , the measured pKi on Vasopressin V1a receptor (Homo sapiens, UniProt P37288) was 8.92

For the compound CC(C)(C)OC(=O)N1CCOC(Cn2cc(C(=O)N3CCC4(CC3)OC(=O)c3ccccc34)c3ccc(Cl)cc32)C1 (stereo not shown) , the measured pKi on Vasopressin V1a receptor (Homo sapiens, UniProt P37288) was 8.52

For the compound O=C(c1cc2cccc(OCc3ccccc3)c2[nH]1)N1CCC(n2c(=O)[nH]c3ccccc32)CC1 , the measured pKi on Vasopressin V1a receptor (Homo sapiens, UniProt P37288) was 7.66

For the compound O=C(c1cn(C(=O)N2CCCCC2)c2cc(Cl)ccc12)N1CCC2(CC1)OCc1ccccc12 , the measured pKi on Vasopressin V1a receptor (Homo sapiens, UniProt P37288) was 8.59

For the compound CCN(CC)C(=O)Cn1cc(C(=O)N2CCC3(CC2)CNc2ccccc23)c2ccc(Cl)cc21 , the measured pKi on Vasopressin V1a receptor (Homo sapiens, UniProt P37288) was 8.24

For the compound O=C(c1cn(C(=O)c2cccc(F)c2)c2cc(Cl)ccc12)N1CCC2(CC1)OCc1ccccc12 , the measured pKi on Vasopressin V1a receptor (Homo sapiens, UniProt P37288) was 8.29

For the compound N#CCc1cc(Cl)cc2cc(C(=O)N3CCC4(CC3)OC(=O)c3ccccc34)[nH]c12 , the measured pKi on Vasopressin V1a receptor (Homo sapiens, UniProt P37288) was 8.18

For the compound CNC(=O)Cn1cc(C(=O)N2CCC3(CC2)OC(=O)c2cc(F)ccc23)c2ccc(Cl)cc21 , the measured pKi on Vasopressin V1a receptor (Homo sapiens, UniProt P37288) was 8.77

For the compound CN(C)C(=O)Cn1cc(C(=O)N2CCC(n3c(=O)[nH]c4ccccc43)CC2)c2cc(Cl)c(Cl)cc21 , the measured pKi on Vasopressin V1a receptor (Homo sapiens, UniProt P37288) was 8.52

For the compound O=C1OC2(CCN(C(=O)c3cn(-c4ccccc4-c4ccccc4)c4cc(Cl)ccc34)CC2)c2ccccc21 , the measured pKi on Vasopressin V1a receptor (Homo sapiens, UniProt P37288) was 7.40

For the compound COC(=O)c1ccc(Cn2c(C)c(C(=O)N3CCC4(CC3)OCc3ccccc34)c3ccccc32)cc1 , the measured pKi on Vasopressin V1a receptor (Homo sapiens, UniProt P37288) was 7.97

For the compound c1ccc(COCc2nnc(C3CCN(c4ccccn4)CC3)n2Cc2ccccc2)cc1 , the measured pKi on Vasopressin V1a receptor (Homo sapiens, UniProt P37288) was 8.33

For the compound CC1CCN(C(=O)c2[nH]c3cc(Cl)ccc3c2C(=O)N2CCC3(CC2)OC(=O)c2cc(F)ccc23)CC1 , the measured pKi on Vasopressin V1a receptor (Homo sapiens, UniProt P37288) was 7.48

For the compound CN(C)CCNC(=O)Cn1cc(C(=O)N2CCC3(CC2)OC(=O)c2ccccc23)c2ccc(Cl)cc21 , the measured pKi on Vasopressin V1a receptor (Homo sapiens, UniProt P37288) was 7.62

For the compound O=C1OC2(CCN(C(=O)c3cn(-c4cc(F)cc(F)c4)c4cc(Cl)ccc34)CC2)c2ccccc21 , the measured pKi on Vasopressin V1a receptor (Homo sapiens, UniProt P37288) was 8.52

For the compound N#CCn1cc(C(=O)N2CCC3(CC2)OC(=O)c2ccccc23)c2ccc(Cl)cc21 , the measured pKi on Vasopressin V1a receptor (Homo sapiens, UniProt P37288) was 8.20

For the compound Cc1c(C(=O)N2CCC(n3c(=O)[nH]c4ccccc43)CC2)c2ccccc2n1Cc1ccccc1 , the measured pKi on Vasopressin V1a receptor (Homo sapiens, UniProt P37288) was 8.22
